Taken from patent US8487108B2.

test system: trypsin-activated recombinant human renin (Homo sapiens)
Sequence (P00797 67-406): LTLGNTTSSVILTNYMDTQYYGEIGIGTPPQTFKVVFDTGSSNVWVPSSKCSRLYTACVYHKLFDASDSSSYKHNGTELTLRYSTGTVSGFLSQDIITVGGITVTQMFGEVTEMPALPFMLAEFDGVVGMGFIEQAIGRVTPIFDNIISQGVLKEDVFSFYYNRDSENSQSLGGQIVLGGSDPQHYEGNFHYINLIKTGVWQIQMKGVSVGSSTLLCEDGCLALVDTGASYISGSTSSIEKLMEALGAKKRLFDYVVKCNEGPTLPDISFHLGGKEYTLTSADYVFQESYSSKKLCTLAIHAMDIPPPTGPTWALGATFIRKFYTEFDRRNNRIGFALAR
assay method text: Renin fluorescence assay (internally quenched peptide substrate)
Assay type: biochemical
assay setup: compounds I*
Parameter IC50: see the listing below.

These solved cases illustrate the format of a correct answer.
>>> observed("CNC[C@@H](NC(=O)N1CCC[C@@H]([C@@H](OCCNC(=O)OC)c2cc(F)ccc2C)C1)[C@@H](O)C1CCCC1 [I*-53a]")
"< 20 nM"
>>> observed("CNC[C@H](C[C@H]1CCC(C)(C)OC1)NC(=O)N1CCC[C@@H]([C@@H](OCCNC(=O)OC)c2cccc(Cl)c2)C1 [I*-157a]")
"< 10 nM"

We next turn to a different molecule, shown below.
Value sought: IC50, system trypsin-activated recombinant human renin (Homo sapiens), item CNC[C@H](CC1CCOCC1)NC(=O)N1CCC[C@@H]([C@@H](OCCNC(=O)OC)c2cc(C)ccc2C)C1 [I*-37a] . Result: < 20 nM
